- measurement notes: Exposure in mice after acute oral dosing (blood levels, UPLC-MS/MS)
- Assay type: in vivo, BALB/c mice
- run parameters: BALB/c, mouse, whole blood, 50 mg kg^−1 oral, 24 h
reported metric: concentration at 24 h
Include the unit right after the number.

# query: concentration at 24 h of entry O=[N+]([O-])c1cn2c(n1)OC[C@@H](OCc1ccc(OC(F)(F)F)cc1)C2 [(S)-PA-824, reference compound] 900 ng/mL

###

half-life values for the compounds below.
- measurement notes: Exposure in mice after acute oral dosing (blood levels, UPLC-MS/MS)
- Format: in vivo, BALB/c mice
- run parameters: BALB/c, mouse, whole blood, 50 mg kg^−1 oral, read-out: elimination half-life (t1/2) (converted)

O=[N+]([O-])c1cn2c(n1)OC[C@H](OCc1ccc(OC(F)(F)F)cc1)C2 [(R)-PA-824] ... ~2 h

Kindly consider the entry below.
Endpoint output: half-life of O=[N+]([O-])c1cn2c(n1)OC[C@@H](OCc1ccc(OC(F)(F)F)cc1)C2 [(S)-PA-824, reference compound] . Value? ~5 h

###

- measurement notes: physchem
Overview of reported solubility across a group of molecules:

O=[N+]([O-])c1cn2c(n1)OC[C@H](OCc1ccc(OC(F)(F)F)cc1)C2 [(R)-PA-824] ... > 250 µM

Now, please, on to the next molecule.
I have this molecule here, O=[N+]([O-])c1cn2c(n1)OC[C@@H](OCc1ccc(OC(F)(F)F)cc1)C2 [(S)-PA-824, reference compound] , and I need its recorded solubility. > 250 µM
